assay: Oral bioavailability in rat; type: ADME, organism-based; settings: in vivo
Readings of bioavailability for the listed compounds
Form entry: value (%) — number only.

| Cpd Smiles | Unit Of Measurement | bioavailability |
| --- | --- | --- |
| CC(C)(C)NCc1cc(Nc2ccnc3cc(Cl)ccc23)ccc1F | % | 100 |
| CCNCc1ccc(Nc2ccnc3cc(Cl)ccc23)cc1O | % | 60 |

Turning now to a further record.
Give a short answer stating reported bioavailability for `CCN(CC)Cc1ccc(Nc2ccnc3cc(Cl)ccc23)cc1O` . 17

---

The compounds below have reported IC50 for UniProt:P10632.
Sequence (P10632 whole entry): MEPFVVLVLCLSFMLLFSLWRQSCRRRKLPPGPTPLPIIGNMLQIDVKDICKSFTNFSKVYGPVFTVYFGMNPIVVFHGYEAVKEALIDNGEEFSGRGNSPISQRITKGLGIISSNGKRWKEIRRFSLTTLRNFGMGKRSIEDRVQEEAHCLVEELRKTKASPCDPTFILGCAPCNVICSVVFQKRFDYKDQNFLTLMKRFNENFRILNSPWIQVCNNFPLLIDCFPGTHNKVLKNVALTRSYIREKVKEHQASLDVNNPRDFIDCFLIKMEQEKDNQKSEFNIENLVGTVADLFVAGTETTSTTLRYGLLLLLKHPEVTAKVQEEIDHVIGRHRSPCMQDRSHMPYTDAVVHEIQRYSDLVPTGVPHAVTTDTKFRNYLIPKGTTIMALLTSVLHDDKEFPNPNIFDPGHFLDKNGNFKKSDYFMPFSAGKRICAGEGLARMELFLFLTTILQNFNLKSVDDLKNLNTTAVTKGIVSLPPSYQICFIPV
Just the number please, in µM, no unit attached.

| Cpd Smiles | Unit Of Measurement | IC50 |
| --- | --- | --- |
| CCNCc1cc(Nc2ccnc3cc(Cl)ccc23)ccc1O | µM | 20 |

Moving on to another compound below.
Print UniProt:P10632 IC50 for `CC(C)(C)NCc1cc(Nc2ccnc3cc(Cl)ccc23)ccc1F` . 9.8
